molecular target: Integrin alpha-V/beta-3 (Homo sapiens, UniProt P05106+P06756); assay: Binding affinity to soluble truncated human recombinant Fc-tagged alphaVbeta3 and integrins were expressed in HEK293T cells after 2 hrs by competition ELISA-like assay
recorded metric: IC50 (nM)
Field: numeric (nM). Do not append units.

Ask: Hi! What's the reported IC50 for NC(N)=NCCC[C@@H]1NC(=O)[C@H](CCCCn2cc(CCC(=O)Nc3ccc(F)cc3)nn2)NC(=O)[C@@H](Cc2ccccc2)NC(=O)[C@H](CC(=O)O)NC(=O)CNC1=O on Integrin alpha-V/beta-3 (Homo sapiens, UniProt P05106+P06756)?
Reply: 10.6
